Target: T1, recombinant human OX40-Fc (human, UniProt P43489 29-214)
T1 construct: also called rh-OX40-Fc; human OX40 hFC (R & D systems)
T1 sequence: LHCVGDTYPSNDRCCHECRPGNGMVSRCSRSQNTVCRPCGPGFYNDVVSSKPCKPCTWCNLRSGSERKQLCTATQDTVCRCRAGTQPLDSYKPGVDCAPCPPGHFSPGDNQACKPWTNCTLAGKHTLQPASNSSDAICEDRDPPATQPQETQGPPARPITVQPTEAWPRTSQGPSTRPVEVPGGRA
Test: ELISA, OX40-Fc coated, VHH at 1000 nM
measurementType: OD450

Here is how some binders turned out for OD450.
Notebook: pgXX88-SZ-4 (VHH, not shown: small tags and cut ends, also called ppXX88-SZ-4) VHH: QVQLVESGGGLAQPGSSLRLSCTASGTVFSILSATWFRQAPGKAHEARELVAFISSDGVSMHADSVKGRFTISRDNAASTVYLQMDNLQPEDTAVYFCKLSNSMMSLEYWGRGTQVTVSS , OD450 read as 1.78

So for pgXX88-SZ-15 (VHH, not shown: small tags and cut ends) VHH: QVQLVESGGGLVQPGGSLRLSCSPSEGAFKMLTTGWFRQVLGKEREFVSAISWGGGATYYADSVKGRFTVSRDNAKNTVYLQMNSLKPEDTAVYYCAVDTGNGVATNIRSQSRYDYWGQGTQVTVSS , the logged OD450 turned out to be 2.12

[A] pgXX88-27 (VHH, not shown: small tags and cut ends) VHH: EVQLVESGGGLVQPGGSVTLSCATSKDTFSRYHMGWFRQAAGKEREFVAAIANTGTTTDYADFVKGRFTISRDSAKNTVYLQMDSLKVEDTAMYYCVVGSQFMSYDYWGQGTQVTVSS
[B] pgXX88-83 (VHH, not shown: small tags and cut ends) VHH: EVQLVESGGGLVQTGDSLRLSCAALGGTPSTYAIGWFRQAAGKELQFVARITWNGDTWYADALPGRVAISRDNAKKTVYLQMNNLKPEDTAEYICAADVSEFRDIPNRDSRANYRYWGQGTQVTVSS
### Prompt # min-compare on OD450 between A and B Record your answer as the label of the chosen record.
### Response B
